Numbers sourced from paper PMC3994528.

target: [Lys684]β-RNAP (Escherichia coli, UniProt P0A8T7+P0A8V2, N684K); experiment: Fluorescence-detected RNAP-Rif interaction assay, GE-resistant RNAP
pKi: −log10 of the molar value.
value type: pKi

1. CC=C(C)C(=O)NCC1NC(=O)C(C(=O)O)NC(=O)C(O)CNC(=O)C(C(C)O)NC(=O)C(C(O)C(O)C(N)=O)NC(=O)C(C(C)C)NC(=O)C(CO)NC1=O (stereo not shown) | < 5.70

---

target: Staphylococcus aureus RNAP (Staphylococcus aureus, UniProt P47768+Q2G0N5); assay: biochemical
pIC50: −log10 of the molar value.
value type: pIC50

1. CC=C(C)C(=O)NCC1NC(=O)C(C(=O)O)NC(=O)C(O)CNC(=O)C(C(C)O)NC(=O)C(C(O)C(O)C(N)=O)NC(=O)C(C(C)C)NC(=O)C(CO)NC1=O (stereo not shown) [GE, GE23077] | 7.70

---

Target: [Asp565]β-RNAP (Escherichia coli, UniProt P0A8T7+P0A8V2, E565D)
Experiment: Fluorescence-detected RNAP-Rif interaction assay, GE-resistant RNAP
Experimental: RNAP-Rif interaction assays were performed as in [Feklistov et al. (2008)]. The assays monitored the quenching of the fluorescence emission of fluorescein incorporated into RNAP holoenzyme at σ^70 residue 517 (serving as a fluorescence-resonance-energy-transfer donor) by the naphthyl moiety of Rif (serving as a fluorescence-resonance-energy-transfer acceptor; [Knight et al., 2005]; [Feklistov et al., 2008]). […]
value type: Ki

1. CC=C(C)C(=O)NCC1NC(=O)C(C(=O)O)NC(=O)C(O)CNC(=O)C(C(C)O)NC(=O)C(C(O)C(O)C(N)=O)NC(=O)C(C(C)C)NC(=O)C(CO)NC1=O (stereo not shown) | > 2000 nM

---

target: Thermus thermophilus RNAP (Thermus thermophilus, UniProt Q8RQE8+Q8RQE9); test: biochemical
pIC50: −log10 of the molar value.
value type: pIC50

1. CC=C(C)C(=O)NCC1NC(=O)C(C(=O)O)NC(=O)C(O)CNC(=O)C(C(C)O)NC(=O)C(C(O)C(O)C(N)=O)NC(=O)C(C(C)C)NC(=O)C(CO)NC1=O (stereo not shown) | 4.70
